Assay: In vivo pharmacokinetic studies in rats
Design: species or system SD rats
Conditions: Sprague-Dawley (SD), rat, plasma, po, 10 mg/kg, rats, repeat 10 mg/kg PO QD, Day 1, Mean of 3 animals
Protocol: This example describes pharmacokinetic (PK) studies of ARI-164, ARI-165, ARI-186, ARI-224, and ARI-226 in mice and rats. In the present studies, the test compounds were given to groups of mice and/or rats (N=3 in each group), intravenously (IV) at 2 mg/kg or orally (PO) at 10, 30, or 40 mg/kg. […] Plasma concentrations of the test compounds were determined by HPLC.
Reported Cmax at 1 day by item:

>  <MOLECULE>
CC[C@H](N)c1csc(C(=O)c2c[nH]c3cc(F)ccc23)n1 [ARI-186]

>  <Cmax at 1 day [ng/mL]>
399

$$$$
>  <MOLECULE>
N[C@@H](c1csc(C(=O)c2c[nH]c3cc(F)ccc23)n1)C(F)(F)F [ARI-224]

>  <Cmax at 1 day [ng/mL]>
792

$$$$

---

Experiment: In vivo pharmacokinetic studies in rats
Design: species or system SD rats
Conditions: SD, rat, plasma, po, 10 mg/kg, rats, PO 10 mg/kg repeat dose, Day 1, Mean of 3 animals
REPORTED_PROPERTY: half-life at 1 day (h)

>  <COMPOUND>
CC(C)(N)c1csc(C(=O)c2c[nH]c3cc(F)ccc23)n1 [ARI-226]

>  <U>
h

>  <MEASURED_RESULT>
2.28

$$$$

---

Assay: In vivo pharmacokinetic studies in mice
Parameters: species or system Balb/C mice
Settings: mouse, plasma; Balb/C mice, single dose IV 5 mg/kg; read-out: Vss

>  <SMILES_ENTRY>
CC[C@H](N)c1csc(C(=O)c2c[nH]c3cc(F)ccc23)n1

>  <Vd (L/kg)>
3.55

$$$$

---

Assay: In vivo pharmacokinetic studies in rats
Set-up: species or system SD rats
Conditions: Sprague-Dawley (SD), rat, plasma, iv, 2 mg/kg, rats, single 2 mg/kg IV dose, Mean of 3 animals
Description: This example describes pharmacokinetic (PK) studies of ARI-164, ARI-165, ARI-186, ARI-224, and ARI-226 in mice and rats. In the present studies, the test compounds were given to groups of mice and/or rats (N=3 in each group), intravenously (IV) at 2 mg/kg or orally (PO) at 10, 30, or 40 mg/kg. […] Plasma concentrations of the test compounds were determined by HPLC.
REPORTED_PROPERTY: MRT inf (h)

>  <SMILES_ENTRY>
CC[C@@H](O)c1csc(C(=O)c2c[nH]c3cc(F)ccc23)n1

>  <REPORTED_PROPERTY>
MRT inf

>  <U>
h

>  <MEASURED_RESULT>
1.11

$$$$
>  <SMILES_ENTRY>
CC[C@H](O)c1csc(C(=O)c2c[nH]c3cc(F)ccc23)n1

>  <REPORTED_PROPERTY>
MRT inf

>  <U>
h

>  <MEASURED_RESULT>
1.69

$$$$

---

Test: In vivo pharmacokinetic studies in rats
Design: species or system SD rats
Conditions: Sprague-Dawley (SD), rat, plasma, po, 10 mg/kg, rats, PO 10 mg/kg repeat dose, Day 5, Mean of 3 animals

>  <COMPOUND>
CC(C)(N)c1csc(C(=O)c2c[nH]c3cc(F)ccc23)n1 [ARI-226]

>  <half-life (h)>
1.64

$$$$

---

Test: In vivo pharmacokinetic studies in mice
Parameters: species or system Balb/C mice
Conditions: mouse, plasma; Balb/C mice, single dose PO 10 mg/kg; read-out: T1/2 (converted)
REPORTED_PROPERTY: half-life (h)

>  <SMILES_ENTRY>
CC[C@H](N)c1csc(C(=O)c2c[nH]c3cc(F)ccc23)n1

>  <REPORTED_PROPERTY>
half-life

>  <U>
h

>  <MEASURED_RESULT>
5.56

$$$$

---

Test: In vivo pharmacokinetic studies in rats
Set-up: species or system SD rats
Conditions: SD, rat, plasma, po, 10 mg/kg, rats, repeat 10 mg/kg PO QD, Day 5, Mean
Method: This example describes pharmacokinetic (PK) studies of ARI-164, ARI-165, ARI-186, ARI-224, and ARI-226 in mice and rats. In the present studies, the test compounds were given to groups of mice and/or rats (N=3 in each group), intravenously (IV) at 2 mg/kg or orally (PO) at 10, 30, or 40 mg/kg. […] Plasma concentrations of the test compounds were determined by HPLC.
REPORTED_PROPERTY: MRT inf at 5 days (h)

>  <COMPOUND>
N[C@@H](c1csc(C(=O)c2c[nH]c3cc(F)ccc23)n1)C(F)(F)F [ARI-224]

>  <MEASURED_RESULT>
1.95

$$$$

---

Molecular target: AhR (Homo sapiens, UniProt P35869)
Construct: host or cells: human HepG2 cells
Sequence (P35869 11-848): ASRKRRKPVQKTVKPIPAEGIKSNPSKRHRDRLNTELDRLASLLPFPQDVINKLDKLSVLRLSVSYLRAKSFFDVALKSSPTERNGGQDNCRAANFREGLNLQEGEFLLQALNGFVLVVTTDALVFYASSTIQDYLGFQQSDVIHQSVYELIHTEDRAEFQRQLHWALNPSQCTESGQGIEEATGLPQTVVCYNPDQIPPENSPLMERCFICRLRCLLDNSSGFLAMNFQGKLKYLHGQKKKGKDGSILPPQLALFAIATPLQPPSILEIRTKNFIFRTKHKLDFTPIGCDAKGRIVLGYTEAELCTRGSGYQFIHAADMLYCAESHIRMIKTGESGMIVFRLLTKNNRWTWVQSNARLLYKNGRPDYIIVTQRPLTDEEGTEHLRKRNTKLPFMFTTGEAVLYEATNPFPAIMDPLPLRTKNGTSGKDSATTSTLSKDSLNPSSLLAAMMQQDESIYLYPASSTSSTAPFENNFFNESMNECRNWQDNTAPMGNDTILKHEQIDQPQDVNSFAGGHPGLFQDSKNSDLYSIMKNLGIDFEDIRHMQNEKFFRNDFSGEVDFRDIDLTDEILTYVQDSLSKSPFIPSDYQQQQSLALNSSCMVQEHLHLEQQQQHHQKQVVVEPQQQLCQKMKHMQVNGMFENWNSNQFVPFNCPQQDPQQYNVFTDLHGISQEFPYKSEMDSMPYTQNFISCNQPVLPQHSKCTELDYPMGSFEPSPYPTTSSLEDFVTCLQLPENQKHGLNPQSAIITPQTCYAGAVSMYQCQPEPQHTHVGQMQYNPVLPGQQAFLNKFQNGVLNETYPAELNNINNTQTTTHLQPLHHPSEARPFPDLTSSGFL
Assay: EROD assay (7-ethoxy-resorufin-O-deethylase; CYP1A1 activity) in human HepG2 cells
Type: cell-based
Details: human HepG2 cells, Plate 2

>  <COMPOUND>
COC(=O)c1csc(C(=O)c2c[nH]c3ccccc23)n1 [ARI-001, ITE, reference compound]

>  <U>
µM

>  <EC90>
458

$$$$

---

Experiment: In vivo pharmacokinetic studies in mice
Design: species or system Balb/C mice
Conditions: mouse, plasma; Balb/C mice, single dose IV 5 mg/kg

>  <MOLECULE>
CC[C@H](N)c1csc(C(=O)c2c[nH]c3cc(F)ccc23)n1 [ARI-186]

>  <Tmax>
4.98 min

$$$$

---

Assay: In vivo pharmacokinetic studies in rats
Set-up: species or system SD rats
Details: SD, rat, plasma, iv, 2 mg/kg, rats, single 2 mg/kg IV dose, individual animal

>  <MOLECULE>
CC[C@H](O)c1csc(C(=O)c2c[nH]c3cc(F)ccc23)n1 [ARI-164]

>  <clearance (mL/min/kg)>
1.63

$$$$

---

Assay: In vivo pharmacokinetic studies in mice
Design: species or system Balb/C mice
Settings: mouse, plasma; Balb/C mice, single dose PO 40 mg/kg
REPORTED_PROPERTY: MRT last (h)

>  <SMILES_ENTRY>
CC[C@H](N)c1csc(C(=O)c2c[nH]c3cc(F)ccc23)n1

>  <REPORTED_PROPERTY>
MRT last

>  <MEASURED_RESULT>
9.35

$$$$

---

Experiment: In vivo pharmacokinetic studies in rats
Design: species or system SD rats
Details: SD, rat, plasma, iv, 2 mg/kg, rats, single 2 mg/kg IV dose, individual animal; read-out: Cmax
Method: This example describes pharmacokinetic (PK) studies of ARI-164, ARI-165, ARI-186, ARI-224, and ARI-226 in mice and rats. In the present studies, the test compounds were given to groups of mice and/or rats (N=3 in each group), intravenously (IV) at 2 mg/kg or orally (PO) at 10, 30, or 40 mg/kg. […] Plasma concentrations of the test compounds were determined by HPLC.
REPORTED_PROPERTY: Cmax (ng/mL)

>  <COMPOUND>
CC[C@H](O)c1csc(C(=O)c2c[nH]c3cc(F)ccc23)n1 [ARI-164]

>  <REPORTED_PROPERTY>
Cmax

>  <MEASURED_RESULT>
42200

$$$$

---

Assay: In vivo pharmacokinetic studies in rats
Design: species or system SD rats
Details: male, Sprague-Dawley (SD), rat, plasma, po, 30 mg/kg, male rats, repeat 30 mg/kg oral dose, Day 7, Mean row

>  <MOLECULE>
CC[C@H](O)c1csc(C(=O)c2c[nH]c3cc(F)ccc23)n1 [ARI-164]

>  <U>
h

>  <Tmax at 7 day>
1

$$$$

---

Test: In vivo pharmacokinetic studies in rats
Set-up: species or system SD rats
Details: Sprague-Dawley (SD), rat, plasma, iv, 2 mg/kg, rats, single 2 mg/kg IV dose, Mean of 3 animals; read-out: Tmax

>  <SMILES_ENTRY>
CC[C@H](O)c1csc(C(=O)c2c[nH]c3cc(F)ccc23)n1

>  <U>
min

>  <Tmax>
4.98

$$$$
>  <SMILES_ENTRY>
CC[C@@H](O)c1csc(C(=O)c2c[nH]c3cc(F)ccc23)n1

>  <U>
min

>  <Tmax>
4.98

$$$$

---

Assay: Hepatocyte intrinsic clearance assay (metabolic stability), rat hepatocytes
Format: in vitro ADME
Conditions: rat, cryopreserved hepatocytes, Rat Hepatocytes, 1 μM test compound
Protocol: The liver is an important organ in the body for drug metabolism. This Example describes hepatocyte intrinsic clearance assays using both human and rat hepatocytes to evaluate the metabolic stability of the indole compounds disclosed herein. The parameters measured include t1/2 (half-life), CLint (intrinsic clearance), and EH (hepatic extraction ratio). […] The residual compound remaining (% R) was determined from LC-MS peak areas by comparison to the zero time point. […]
Returns y if the recorded half-life at 1 μM is greater than or equal to 1 h, and n otherwise.

>  <MOLECULE>
O=C(c1nc([C@H](O)C(F)(F)F)cs1)c1c[nH]c2cc(F)ccc12

>  <ASSIGNED_CLASS>
y

$$$$
>  <MOLECULE>
N[C@H](c1csc(C(=O)c2c[nH]c3ccccc23)n1)C(F)(F)F

>  <ASSIGNED_CLASS>
n

$$$$
>  <MOLECULE>
CC[C@@H](N)c1csc(C(=O)c2c[nH]c3cc(F)ccc23)n1

>  <ASSIGNED_CLASS>
y

$$$$
>  <MOLECULE>
CC[C@@H](N)c1csc(C(=O)c2c[nH]c3ccc(F)cc23)n1

>  <ASSIGNED_CLASS>
n

$$$$
>  <MOLECULE>
CCC(C)(O)c1csc(C(=O)c2c[nH]c3cc(F)ccc23)n1 (stereo not drawn)

>  <ASSIGNED_CLASS>
n

$$$$
>  <MOLECULE>
CCC(O)(CC)c1csc(C(=O)c2c[nH]c3cc(F)ccc23)n1

>  <ASSIGNED_CLASS>
n

$$$$
>  <MOLECULE>
CC(C)(O)c1csc(C(=O)c2c[nH]c3cc(F)ccc23)n1

>  <ASSIGNED_CLASS>
y

$$$$
